read-out: Macrophage colony-stimulating factor (MCSF), CSF1 (gene 1435); test: BSK_LPS_MCSF: BioMAP Diversity Plus: LPS Assay for Macrophage colony-stimulating factor (MCSF) Biomarker Activity (AID 2283083); conditions: primary human HUVEC with PBMC; actives raise or lower the signal
Activity calls are given as the source filed them. How the source made its calls: active means hit-call score of the fitted dose curve at least 0.9, where 1 is the maximum; inactive means score below 0.9.
Returns: one label drawn from t = active, f = inactive

// below: answered molecules
[
  {
    "molecule": "C=C(C)C(=O)OCCC(F)(F)C(F)(F)C(F)(F)C(F)(F)C(F)(F)C(F)(F)F",
    "category": "f"
  },
  {
    "molecule": "O=c1c(-c2ccc(O)cc2)coc2cc(O)ccc12",
    "category": "f"
  },
  {
    "molecule": "OC1CCC(C2CCCCC2)CC1 (stereo unspecified)",
    "category": "f"
  },
  {
    "molecule": "c1ccc2c(c1)ccc1ccccc12",
    "category": "f"
  },
  {
    "molecule": "CCCCOCCO",
    "category": "f"
  }
]

Record request — test call for CC(=O)NC1(c2cccc(F)c2)CCN(CC[C@@]2(c3ccc(Cl)c(Cl)c3)CN(c3ccccc3)C(=O)CO2)CC1
f

Try this molecule too: CCCCCCCCCCCCCCCS(=O)(=O)Oc1ccccc1
f

Try this molecule too: Oc1cccc(O)c1
f

Try this molecule too: CCCOc1sc(C(=O)N2CCC(c3cc(CN)ccc3F)CC2)c(C)c1Br
t

Try this molecule too: CCCCC(CC)COC(=O)CCCCC(=O)OCc1ccccc1 (stereo unspecified)
f

Try this molecule too: COC(=O)CCCCC(=O)OC
f

Try this molecule too: COc1ccc([N+](=O)[O-])cc1N
f

Try this molecule too: CCCCCCCCCCCCc1ccccc1S(=O)(=O)O
f

Try this molecule too: CN(C)C=O
f

Try this molecule too: O=C(OCCOCCOC(=O)c1ccccc1)c1ccccc1
f

Try this molecule too: COCC(C)O (stereo unspecified)
f

Try this molecule too: CC1=C(/C=C/C(C)=C/C=C/C(C)=C/C(=O)O)C(C)(C)CCC1
t

* * *

molecular target: Muscarinic acetylcholine receptor M3 (Homo sapiens) (UniProt P20309); test: NVS_GPCR_hM3: NovaScreen (NVS) G Protein-Coupled Receptor Assay for human Muscarinic, M3 Receptor (AID 2283272)
Sequence (P20309 whole entry, looked up): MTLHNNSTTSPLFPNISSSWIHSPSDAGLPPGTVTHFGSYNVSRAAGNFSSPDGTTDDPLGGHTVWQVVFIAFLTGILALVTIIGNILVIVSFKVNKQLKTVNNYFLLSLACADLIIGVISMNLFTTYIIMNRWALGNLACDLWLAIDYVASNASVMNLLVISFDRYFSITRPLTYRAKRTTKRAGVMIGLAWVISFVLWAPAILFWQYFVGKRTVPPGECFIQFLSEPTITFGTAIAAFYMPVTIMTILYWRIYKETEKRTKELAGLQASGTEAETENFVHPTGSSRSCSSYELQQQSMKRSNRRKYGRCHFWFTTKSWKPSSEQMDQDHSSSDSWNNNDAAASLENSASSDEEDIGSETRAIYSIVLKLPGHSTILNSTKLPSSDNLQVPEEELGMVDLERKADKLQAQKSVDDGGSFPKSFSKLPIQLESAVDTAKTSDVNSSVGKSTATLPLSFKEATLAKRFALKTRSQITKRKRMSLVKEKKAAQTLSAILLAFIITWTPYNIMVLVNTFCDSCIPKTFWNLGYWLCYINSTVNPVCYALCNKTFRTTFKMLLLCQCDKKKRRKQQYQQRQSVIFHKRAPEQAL
Inconclusive results are not listed. Calls of active or inactive are those of the source. Rule for the calls: active = hit-call score of the fitted dose curve at least 0.9, where 1 is the maximum; inconclusive = response in the unintended direction; inactive = score below 0.9.
quantityName: AC50

[
  {
    "smilesData": "NC(=O)N(O)[C@@H]1C=C[C@H](Oc2cccc(Oc3ccc(F)cc3)c2)C1",
    "recordedResult": "inactive"
  },
  {
    "smilesData": "CCCCCCCC(=O)O",
    "recordedResult": "inactive"
  },
  {
    "smilesData": "CCCOc1sc(C(=O)N2CCC(c3cc(CN)ccc3F)CC2)c(C)c1Br",
    "recordedResult": "11.3 µM (active)"
  },
  {
    "smilesData": "CCN(CC)CCNc1ccc(CNC=O)c2sc3ccc(OC)cc3c(=O)c12",
    "recordedResult": "8.94 µM (active)"
  }
]

* * *

read-out: adenosine kinase (ADK) gene, ADK (gene 132); experiment: LTEA_HepaRG_ADK: Life Technologies and Expression Analysis (LTEA) Assay for adenosine kinase (ADK) gene using HepaRG (AID 2283471); conditions: mRNA level, 48 h; actives raise or lower the signal
Activity calls are given as the source filed them. How the source made its calls: active means hit-call score of the fitted dose curve at least 0.9, where 1 is the maximum; inactive means score below 0.9.
Returns: one label drawn from true (1) = active, false (0) = inactive

Record request — test call for CCCCCCC(=O)O
false (0)

Try this compound too: Nc1cccc2c(N)cccc12
false (0)

Try this compound too: Oc1cc2ccccc2c2ccccc12
false (0)

Try this compound too: OCCC(F)(F)C(F)(F)C(F)(F)C(F)(F)C(F)(F)C(F)(F)F
false (0)

Try this compound too: OC1CCC(C2CCCCC2)CC1 (configuration not stated)
false (0)

Try this compound too: c1ccc2c(c1)ccc1ccccc12
false (0)

Try this compound too: CCCCCCCCCCCCN1CCCC1=O
false (0)

Try this compound too: COCC(C)OCC(C)O (configuration not stated)
false (0)

Try this compound too: CCCOC(=O)c1ccc(O)cc1
false (0)

Try this compound too: CC#C[C@]1(O)CC[C@H]2[C@@H]3CCC4=CC(=O)CCC4=C3[C@@H](c3ccc(N(C)C)cc3)C[C@@]21C
true (1)

Try this compound too: Cc1cc(C)c(O)c(C)c1
false (0)

* * *

assay: BSK_BE3C_SRB: Viability Assessment in the BioMAP Diversity Plus: BE3C Assay (AID 2283028); details: primary human bronchial epithelial cells;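 further: measured 24 h after chemical dosing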
Activity calls are given as the source filed them. Rule for the calls: active = hit-call score of the fitted dose curve at least 0.9, where 1 is the maximum; inactive = score below 0.9.
Returns: one label drawn from active, inactive

// below: answered molecules
[
  {
    "molecule": "COCC(C)OCC(C)O (configuration not stated)",
    "category": "inactive"
  },
  {
    "molecule": "C#C[C@]1(O)CC[C@H]2[C@@H]3CCC4=CC(=O)CC[C@@H]4[C@H]3CC[C@@]21C",
    "category": "inactive"
  },
  {
    "molecule": "CCCCCCCCOC(=O)CCCCCCCCC(=O)OCCCCCCCC",
    "category": "inactive"
  },
  {
    "molecule": "CCCCCCCCCCCCN1CCCC1=O",
    "category": "active"
  },
  {
    "molecule": "CCCOC(=O)c1ccc(O)cc1",
    "category": "inactive"
  },
  {
    "molecule": "OCCC(F)(F)C(F)(F)C(F)(F)C(F)(F)C(F)(F)C(F)(F)F",
    "category": "inactive"
  },
  {
    "molecule": "CC(C)(C)c1cc(C(C)(C)C)c(O)c(C(C)(C)C)c1",
    "category": "inactive"
  },
  {
    "molecule": "CC[C@H](c1ccc(O)cc1)[C@@H](CC)c1ccc(O)cc1",
    "category": "active"
  }
]

Record request — test call for CCCOc1sc(C(=O)N2CCC(c3cc(CN)ccc3F)CC2)c(C)c1Br
active

Try this molecule too: CC(O)CO (configuration not stated)
inactive

Try this molecule too: c1ccc2c(c1)ccc1ccccc12
inactive

Try this molecule too: ClC1=C(Cl)C(Cl)(Cl)C(Cl)=C1Cl
active

* * *

test: APR_HepG2_P-H2AX_24hr: Apredica 24-hour HepG2 Assay for H2AX Phosphorylation (AID 2282920); details: high-content imaging, actives raise or lower the signal
Activity calls are given as the source filed them. Rule for the calls: active = hit-call score of the fitted dose curve at least 0.9, where 1 is the maximum; inactive = score below 0.9.

[
  {
    "smilesData": "CC[C@H](c1ccc(O)cc1)[C@@H](CC)c1ccc(O)cc1",
    "outcome": "inactive"
  },
  {
    "smilesData": "c1ccc2c(c1)Cc1ccccc1-2",
    "outcome": "inactive"
  },
  {
    "smilesData": "CN(C)C=O",
    "outcome": "inactive"
  }
]

* * *

test: TOX21_p53_BLA_p3_viability: Viability Assessment in the Tox21 HCT-116 p53 Agonism Beta-lactamase Assay, Phase 3 (AID 2283593);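 further: cells exposed to compound for 16 h before reading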
Results filed as inconclusive are left out. Activity calls are given as the source filed them. Rule for the calls: active = hit-call score of the fitted dose curve at least 0.9, where 1 is the maximum; inconclusive = response in the unintended direction; inactive = score below 0.9.
Returns: one label drawn from y for active, n for inactive

Record request — test call for CC(=O)CC(C)(C)O
n

Try this compound too: C=C(C)C(=O)OCCC(F)(F)C(F)(F)C(F)(F)C(F)(F)C(F)(F)C(F)(F)F
n

Try this compound too: NC(=O)N1C(=O)C(C(=O)c2cc(Cl)cs2)c2cc(F)c(Cl)cc21 (stereo not drawn)
n

Try this compound too: CCCOC(=O)c1ccc(O)cc1
n

Try this compound too: Cc1cc(C)c(O)c(C)c1
n

Try this compound too: O=c1c(-c2ccc(O)cc2)coc2cc(O)ccc12
n

Try this compound too: N#C[C@@H]1CC(F)(F)CN1C(=O)CNC1CC2CCC(C1)N2c1ncccn1 (stereo partly drawn)
n

Try this compound too: Cc1oc(-c2ccccc2)nc1CCOc1ccc(C[C@H](Nc2ccccc2C(=O)c2ccccc2)C(=O)O)cc1
y

Try this compound too: COc1ccc([N+](=O)[O-])cc1N
n

Try this compound too: CCCCCCC(=O)O
n

Try this compound too: Cc1ccc(S(=O)(=O)O)c(C)c1
n

Try this compound too: O=C(O)Cc1cc(I)c(Oc2cc(I)c(O)c(I)c2)c(I)c1
y

Try this compound too: COC(=O)CCCCC(=O)OC
n

* * *

read-out: MicroRNA 122 (MIR122), gene 406906; experiment: LTEA_HepaRG_MIR122: Life Technologies and Expression Analysis (LTEA) Assay for MicroRNA 122 (MIR122) using HepaRG (AID 2283516); conditions: mRNA level, 48 h; actives raise or lower the signal; further: the transcript read is the microRNA miR-122
The source made the active and inactive calls. How the source made its calls: active means hit-call score of the fitted dose curve at least 0.9, where 1 is the maximum; inactive means score below 0.9.
Returns: one label drawn from active, inactive

[
  {
    "smilesData": "Nc1cccc2c(N)cccc12",
    "category": "inactive"
  }
]

Record request — test call for CCCCCCCCCCCCc1ccccc1S(=O)(=O)O
active

Try this compound too: OC1CCCCC1
inactive

Try this compound too: O=[N+]([O-])c1ccc(O)cc1
inactive

Try this compound too: O=C(OCCOCCOC(=O)c1ccccc1)c1ccccc1
inactive

Try this compound too: OCCC(F)(F)C(F)(F)C(F)(F)C(F)(F)C(F)(F)C(F)(F)C(F)(F)C(F)(F)F
inactive

Try this compound too: CCOC(=O)CC(O)(CC(=O)OCC)C(=O)OCC
inactive
